# test.details: Toxicity liver stage against HepG2, at 10uM
# Type: cell-based
# Parameters: test concentration 10 uM, cell line HepG2-A16-CD81EGFP
# test.settings: human, HepG2-A16-CD81EGFP cells; read-out: INHIBITION
Please respond with reported cytotoxicity at 10 µM for every item in the list.
Quick reminder: number only, in %, skip the unit.

Q: Param item = `COc1ccc(OCCNC(=O)N2CCS(=O)(=O)CC2)cc1` ; retrieve measured cytotoxicity at 10 µM.
Result: -6.95

Q: What do you get for Cc1ccc(C(NC(=O)CC2CCN(C(C)C)CC2)C(=O)O)cc1 (stereo unspecified) ?
Result: -9.99

Q: # repeat for `Cc1cc(CN2C[C@@H]3CCCO[C@@H]3[C@H](Nc3ccccn3)C2)no1`
Result: -4.72

Q: Now consider `Cc1nc2c(c(=O)n1C)CCN(Cc1cc3ccccc3[nH]1)CC2` .
Result: -8.42

Q: // repeat for `Cc1cc(CN2C[C@@H]3COC[C@]3(CN(C)C)C2)no1` and report
Result: 4.81

Q: Try this molecule next: CN(C)Cc1cnc(C2CCN(C(=O)c3cc(F)cc(F)c3)C2)[nH]1 (stereo unspecified)
Result: 2.5

Q: Field entry: O=C(O)C1CN(c2cccc(F)c2)CCO1 (stereo unspecified)
Result: -25.2

Q: Moving on to the next molecule: `CN(C(=O)Cn1nc(-c2ccc(F)cc2)oc1=O)c1ccccc1`
Result: -0.267

Q: Proceed to `COc1ccc(CN(C)c2ccc(-c3nccn3C)nn2)cc1OC`
Result: -3.32

Q: Same lookup for `Cc1cc(C)nc(N2CCC(C(=O)Nc3ncc[nH]3)CC2)n1` , please.
Result: 4.47

Q: // same read-out, input: `COc1cnc(CSc2nnc(C)s2)cc1OCC(=O)NC(C)(C)C`
Result: 9.82

----------
# test.details: Toxicity liver stage against HepG2, at 10uM
# Type: cell-based
# Set-up: test concentration 10 uM, cell line HepG2-A16-CD81EGFP
# test.settings: human, HepG2-A16-CD81EGFP cells; read-out: INHIBITION
Exercise: for every item that follows, state its recorded cytotoxicity at 10 µM.
Kindly provide the numeric value in % only, without the unit symbol.

Q: Fill blank: measured cytotoxicity at 10 µM of the molecule `O=C(c1ccc(Br)o1)N1CCN(Cc2ccc(F)cc2)CC1` is ____.
Result: 9.08

Q: Record: `COCc1noc(C2(c3ccc(Br)cc3)CCOCC2)n1`
Result: -9.61

Q: Same question, `Cc1ncccc1CNCC1CCN(CCO)CC1` this time
Result: -22.5

Q: Thanks! And `Cc1cncnc1C1CCN(C(=O)CN(C)C)CC1` ?
Result: -7.91

Q: Lookup `CCC(C)(CC)NC(=O)COc1nn(C)c2nc(C)cc(C)c12`
Result: -6.17

Q: Thanks! And `N#Cc1ncn(CC(=O)Cc2c(F)cccc2Cl)n1` ?
Result: -1.45

Q: Same question for Cc1ccc(CNCc2nnc3n2CC(C(F)(F)F)CC3)o1 (stereo not given) please.
Result: 9.87

Q: What do we get for `CCn1cc(-n2cc3nc(N4CCOCC4)[nH]cc-3c2=O)cn1` ?
Result: 3.43

Q: // next record `CN(C)C(=O)N1CC2(CCN(CC3CC3)CC2)c2cc(F)ccc21`
Result: -1.54

Q: And for `CCN1CCN(C2CCN(Cc3ncc(C(C)(C)C)o3)CC2)C1=O` ?
Result: 2.05

Q: Let us now turn to Cc1cccc(Nc2nccnc2C2CCCN2CC(N)=O)n1 (stereo not given)
Result: -4.16

Q: Continue with `O=C(Cn1cccn1)Nc1ccc(N2CCCCC2)cc1`
Result: 0.955

Q: Again, but for Cc1cncc(C2CCCN(C(=O)c3ccc(C)[nH]c3=O)C2)n1 (stereo not given)
Result: 5.37

Q: Next up: `CSc1ccc(NC(=O)Cn2cc(N)cn2)cc1`
Result: 0.14

Q: Same for `O=C(Cc1cccc(F)c1)N1CCn2cc(Cn3cccn3)nc2C1`
Result: -84.3

Q: And the next one, `Cn1ccnc1Sc1ccc(S(N)(=O)=O)cn1` ?
Result: -1.6

Q: Next entry: `CC(=O)c1ccc(CN2C[C@@H](CN3CCC(O)CC3)[C@@H](CO)C2)cc1`
Result: 9.99

Q: Now try `CCc1[nH]c2c(CNC(=O)C3CCS(=O)(=O)CC3)cc(C)cc2c1C` .
Result: 1.87

Q: Please do the same for `COc1ccccc1NCC(=O)NCc1cc[nH]n1` as well.
Result: 1.87

Q: Next: COc1ccc(OC)c(C2CCN(C(=O)C3CCC(O)CC3)C2)c1 (stereo not given)
Result: -1.65

Q: Then `O=c1[nH]c2ncccc2n1C1CCNCC1` ?
Result: 11.5

Q: Now this one: `CC(C)CNC(=O)c1ccc(NC(=O)NC2CC2)cc1Cl`
Result: 2.56

Q: // next record CCNc1cc2c(nn1)CCN(C(=O)C(C)c1c(C)noc1C)C2 (stereo not given)
Result: -4.05

Q: Please answer likewise for `Cc1cc(CNC(=O)NCCOc2ccc(F)c(F)c2)on1`
Result: 16.3

Q: Now the molecule `CN(Cc1ccsc1)C(=O)CN1CCc2c(ncn2C)C1`
Result: 2.83
